Origin of measurements: paper PMC2774819

ASSAY_TARGET: T1, MycCI cytochrome P450, C-terminal 6 x His tagged (Micromonospora griseorubida, UniProt Q83WF5 1-388)
T1 sequence (looked up): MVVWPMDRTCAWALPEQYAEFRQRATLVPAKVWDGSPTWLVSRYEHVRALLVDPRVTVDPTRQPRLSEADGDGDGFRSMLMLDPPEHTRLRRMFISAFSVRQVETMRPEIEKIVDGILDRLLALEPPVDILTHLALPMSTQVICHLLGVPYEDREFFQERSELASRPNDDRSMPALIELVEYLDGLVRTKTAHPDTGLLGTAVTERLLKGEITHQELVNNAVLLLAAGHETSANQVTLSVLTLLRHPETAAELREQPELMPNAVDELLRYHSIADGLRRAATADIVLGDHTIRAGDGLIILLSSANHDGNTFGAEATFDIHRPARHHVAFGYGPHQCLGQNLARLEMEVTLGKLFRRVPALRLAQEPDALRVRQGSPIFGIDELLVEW
EXPERIMENTAL_PROTOCOL: spectral ferredoxin titration
READOUT: Kd (µM)

[
  {
    "BINDER": "N-terminal 6 x His-tagged ferredoxin MycCII (natural protein, Micromonospora griseorubida, UniProt Q83WF4 1-74, looked up) MRIVLDAERCVGAGQCEATAPELFTQGDDGLGLVRDRPVTPELLGPAREAVDRCPVRAIRIESSVRTGWARGAG",
    "RESULT_NUMBER": 7
  }
]
